This collection of values is drawn from ChEMBL document CHEMBL4689842.

# Total Cell Count listing for each entry below
- Test system: U2OS
- ASSAY OVERVIEW: Multiplex assay against U2OS
- Format: toxicity, cell-based
- CONDITION: human, 12 h, 10 µM, compound concentration 10 uM, replicate 1
No unit in the answer, only the number.

C=CC(=O)Nc1cc2c(Nc3ccc(F)c(Cl)c3)ncnc2cc1OCCCN1CCOCC1.Cl.Cl [CANERTINIB DIHYDROCHLORIDE]: 142
CN1CCN(CCOc2cc(OC3CCOCC3)c3c(Nc4c(Cl)ccc5c4OCO5)ncnc3c2)CC1: 184

### Prompt // fetch Total Cell Count given entry CC(C)NCC(O)COc1ccc(CCOCC2CC2)cc1.Cl (stereo not drawn) [BETAXOLOL HYDROCHLORIDE]
### Response 124

### Prompt // fetch Total Cell Count given entry CN1CCC[C@@H]1CCO[C@](C)(c1ccccc1)c1ccc(Cl)cc1.O=C(O)/C=C/C(=O)O [CLEMASTINE FUMARATE]
### Response 127

### Prompt // fetch Total Cell Count given entry CN1CCCC(n2nc(Cc3ccc(Cl)cc3)c3ccccc3c2=O)CC1.Cl (stereo not drawn) [AZELASTINE HYDROCHLORIDE]
### Response 87

* * *

- System: Fibroblast
- ASSAY OVERVIEW: Multiplex assay against human fibroblast
- Format: toxicity, cell-based
- CONDITION: 12 h, 1 µM, compound concentration 1 uM, replicate 2
Parameter class (string): assigned from measured Population Mitochondria Different-Phenotype (%). Ranges: I = under 10%, II = from 10% up to 30%, III = 30% and over

Cc1csc2c(N[C@@H](C)CN3CCN(S(=O)(=O)c4ccc(Cl)c(Cl)c4)CC3)ncnc12: III
Cc1c(-c2ccc(O)cc2)n(Cc2ccc(OCCN3CCCCCC3)cc2)c2ccc(O)cc12: II
Cc1[nH]c(/C=C2\C(=O)Nc3ccc(S(=O)(=O)N(C)c4cccc(Cl)c4)cc32)c(C)c1C(=O)N1CCN(C)CC1: III
CN(C)CC#Cc1ccc(OCCCc2sc(N3CCc4cccc(C(=O)Nc5nc6ccccc6s5)c4C3)nc2C(=O)O)c(F)c1: III
CC(C)(O)CNc1ncc(-c2ccnc(Nc3ccnc(Cl)c3)n2)c(CC2CC2)n1: II

### Prompt Which category does the recorded Population Mitochondria Different-Phenotype (%) put `C[C@@]1(C(=O)Nc2ccc(F)nc2)CCCN1c1nc(Nc2cc(C3CC3)n[nH]2)c2cccn2n1` in?
### Response III

### Prompt Which category does the recorded Population Mitochondria Different-Phenotype (%) put `COc1cc(-n2cnc3cc(-c4ccc(Cl)cc4)sc3c2=O)ccc1OCCN1CCCC1` in?
### Response III

### Prompt Which category does the recorded Population Mitochondria Different-Phenotype (%) put `C=CC(=O)Nc1cccc(C(=O)Nc2ccc(Nc3cc(-c4[nH]c(SC)nc4C)ccn3)cc2)c1` in?
### Response I

* * *

# Population Healthy Nuclei (%) listing for each entry below
- Test system: U2OS
- ASSAY OVERVIEW: Multiplex assay against U2OS
- Type: toxicity, cell-based
- CONDITION: human, 48 h, 1 µM, compound concentration 1 uM, replicate 2
Answer format: numeric, % implied, no suffix.

c1cn2cc(-c3ccc4cn[nH]c4c3)nc(Nc3ccc(N4CCOCC4)cc3)c2n1: 77

### Prompt // fetch Population Healthy Nuclei (%) given entry `Cc1csc2c(N[C@@H](C)CN3CCN(S(=O)(=O)c4ccc(Cl)c(Cl)c4)CC3)ncnc12`
### Response 82

### Prompt // fetch Population Healthy Nuclei (%) given entry `CN(C)CC#Cc1ccc(OCCCc2sc(N3CCc4cccc(C(=O)Nc5nc6ccccc6s5)c4C3)nc2C(=O)O)c(F)c1`
### Response 51

### Prompt // fetch Population Healthy Nuclei (%) given entry CC(C)NCC(O)COc1ccc(CCOCC2CC2)cc1.Cl (stereo not drawn) [BETAXOLOL HYDROCHLORIDE]
### Response 80

### Prompt // fetch Population Healthy Nuclei (%) given entry `Cn1cc(-c2[nH]c3cc(NC(=O)[C@H](N)C4CCCCC4)cc4c3c2C=NNC4=O)cn1`
### Response 55

### Prompt // fetch Population Healthy Nuclei (%) given entry CN1CCC[C@@H]1CCO[C@](C)(c1ccccc1)c1ccc(Cl)cc1.O=C(O)/C=C/C(=O)O [CLEMASTINE FUMARATE]
### Response 84

### Prompt // fetch Population Healthy Nuclei (%) given entry `CNc1nc(NCc2ccc(NS(C)(=O)=O)cc2Cl)cc(-c2ccccn2)n1`
### Response 90

### Prompt // fetch Population Healthy Nuclei (%) given entry `CN1CCN(c2ccc(OC(F)(F)F)c(Nc3ncc4c(n3)-c3c(c(C(N)=O)nn3CCO)CC4)c2)CC1`
### Response 45

### Prompt // fetch Population Healthy Nuclei (%) given entry `Cc1c(-c2ccc(O)cc2)n(Cc2ccc(OCCN3CCCCCC3)cc2)c2ccc(O)cc12`
### Response 75

### Prompt // fetch Population Healthy Nuclei (%) given entry `Cc1[nH]c(/C=C2\C(=O)Nc3ccc(S(=O)(=O)N(C)c4cccc(Cl)c4)cc32)c(C)c1C(=O)N1CCN(C)CC1`
### Response 77

### Prompt // fetch Population Healthy Nuclei (%) given entry `C=CC(=O)Nc1cccc(C(=O)Nc2ccc(Nc3cc(-c4[nH]c(SC)nc4C)ccn3)cc2)c1`
### Response 85

### Prompt // fetch Population Healthy Nuclei (%) given entry `COc1ncc(-c2ccc3nccc(-c4ccnnc4)c3c2)cc1NS(=O)(=O)c1ccc(F)cc1F`
### Response 32

### Prompt // fetch Population Healthy Nuclei (%) given entry `COc1cc(-n2cnc3cc(-c4ccc(Cl)cc4)sc3c2=O)ccc1OCCN1CCCC1`
### Response 74

### Prompt // fetch Population Healthy Nuclei (%) given entry CN1CCCC(n2nc(Cc3ccc(Cl)cc3)c3ccccc3c2=O)CC1.Cl (stereo not drawn) [AZELASTINE HYDROCHLORIDE]
### Response 74

### Prompt // fetch Population Healthy Nuclei (%) given entry `CC(C)(O)CNc1ncc(-c2ccnc(Nc3ccnc(Cl)c3)n2)c(CC2CC2)n1`
### Response 76

### Prompt // fetch Population Healthy Nuclei (%) given entry COc1cccc([C@@H](C)NCCCc2ccccc2Cl)c1.Cl [TECALCET HYDROCHLORIDE]
### Response 84

### Prompt // fetch Population Healthy Nuclei (%) given entry CN(C)C(=O)N[C@H]1CC[C@H](CCN2CCN(c3cccc(Cl)c3Cl)CC2)CC1.Cl [CARIPRAZINE HYDROCHLORIDE]
### Response 82

### Prompt // fetch Population Healthy Nuclei (%) given entry `OC1(c2ccc(Cl)cc2)CCN(Cc2c[nH]c3ccccc23)CC1`
### Response 81
